# experiment description: small-molecule binders of probe aInhba, primary screen, biochemical, small-molecule microarray, 635/667 nm fluorescence (AID 1148);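 also: score merges 667nm spot fluorescence with signal-to-noise for antibody binding to printed compounds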
# measurement conditions: higher = more signal
Mark label 1 for reported composite z-score of 0.05 or greater; mark label 0 for anything smaller.

COCCOC(=O)N1C(=O)[C@@]2(c3cc(C#CCC(C(=O)OC)C(=O)OC)ccc31)[C@H](c1ccccc1OCCO)N1[C@H](c3ccccc3)[C@H](c3ccccc3)OC(=O)[C@H]1[C@@H]2C(=O)N1CCN(c2ncccn2)CC1    label 0
C=CCOC(=O)[C@@H]1[C@H]2C(=O)O[C@H](c3ccccc3)[C@H](c3ccccc3)N2[C@H](c2ccc(OCCOC(=O)[C@H]3C[C@H]4C(=O)N5CCC[C@H]5C(=O)N4[C@H]3c3ccc(O)cc3)cc2)[C@@]12C(=O)Nc1ccc(I)cc12    label 0

Reported composite z-score at or above 0.05? COc1cc(NN2C(C(O)c3ccco3)C=CC3C(=O)N(c4ccccc4)C(=O)C32)cc(OC)c1OC (centres undefined)
label 0

Do the same for CCOC(=O)[C@H]1C/C=C/C[C@H](C(=O)OCC)C(=O)O[C@H]2[C@@H](OC)O[C@H](CO)[C@@H](OC(=O)c3c(OC)cccc3OC)[C@@H]2OC1=O please
label 0

Do the same for C=CCC(OC(C)=O)[C@@H]1[C@@H](N(Cc2cccc3ccccc23)C(=O)c2ccc(-c3ccccc3)cc2)c2cc(OCCCO)ccc2N1C(=O)c1ccc2ccccc2c1 (some centres undefined) please
label 1

Do the same for CN(C)CCCC[C@@H]1NC(=O)[C@@H]2C[C@H](C(=O)NCCCCCCN)[C@H](c3cccc(OCCO)c3)N2C1=O please
label 1

Do the same for COC(=O)[C@]1(CCC(=O)OC(C)(C)C)N=C(c2ccc(OCCCO)cc2)O[C@@H]1c1ccccc1CN=[N+]=[N-] please
label 1

Do the same for CC(C)CNC(=O)[C@@]1(Cc2ccccc2I)c2ccccc2C(=O)N(C2CCCCC2)[C@H]1c1ccc(CO)cc1 please
label 1

Do the same for CO[C@H]1O[C@H](CO)[C@@H](OC(=O)Nc2ccccc2)[C@H](OC(=O)Nc2ccccc2)[C@@H]1OC(=O)Nc1ccccc1 please
label 1

Do the same for CC(C)C[C@@H]1NC(=O)[C@H](C(C)C)NC(=O)[C@@]23C(=O)N[C@@H](Cc4ccccc4)C2[C@H](C)[C@@]2(C)O[C@H]2C3/C=C/CC/C=C/CNC1=O (some centres undefined) please
label 1

====

# experiment description: small-molecule microarray binders of probe aEGFR, primary screen, biochemical, biotinylated probe, 635/667 nm fluorescence (AID 1097);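 also: probe is a biotinylated anti-EGFR antibody binding compounds printed on slides; score combines fluorescence near 667 nm and signal to noise of each spot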
# measurement conditions: higher = more signal
Items are presented alongside their recorded composite z-score.

Example results:
CCC[C@@H]1C[C@@]1(CCC)[C@@H](NC(=O)c1ccccc1)c1cccc(Cl)c1    0.913
CC1(C)C2C=C(C(O)C3C=CC4C(=O)NC(=O)C4N3Nc3ccc(Cl)cc3Cl)C[C@@H]1C2 (some centres not stated)    0.279
C[C@@]1([C@@H](NC(=O)c2ccc(-c3ccccc3)cc2)c2ccc(Cl)cc2)C[C@H]1C1CCCCC1    0.302
COC(=O)c1c(CC[C@@H](CO)NC(=O)NCCn2cc(C3(O)CCCC3)nn2)oc(C(C)=O)c1C(=O)OC    -0.0778
CC(C)N1C(=O)C[C@@](C(=O)NCC(F)(F)F)(c2ccc([N+](=O)[O-])cc2)[C@H]1c1ccc(CO)cc1    -0.0987
CN(C)CCCCCCNC(=O)[C@@H]1C[C@@H]2C(=O)N[C@@H](Cc3ccccc3)C(=O)N2[C@@H]1c1ccc(O)cc1    0.246

Find the recorded composite z-score belonging to CO[C@H]1O[C@H](CO)[C@@H](OC(=O)Nc2ccccc2)[C@H](OC(=O)Nc2ccccc2)[C@@H]1OC(=O)Nc1ccccc1 and report it.
0.138

Do the same for CC(C)NC(=O)[C@@H]1c2ccccc2C(=O)N(C2Cc3ccccc3C2)[C@H]1c1ccc(CO)cc1 please
-0.126

Do the same for CCCCCN1CC=CC23O[C@@H]4/C=C\CCC(C)OC(=O)C4[C@H]2C(=O)N(C(C)CO)[C@@H]3C1=O (some centres not stated) please
-0.168

Do the same for C=C[C@H](OC)[C@@H](OC(=O)Nc1ccc(OC)cc1)c1ccc(O)c(F)c1 please
-0.335

Do the same for CC(C)NC(=O)[C@@]1(C)c2ccccc2C(=O)N(Cc2cc(C(F)(F)F)cc(C(F)(F)F)c2)[C@H]1c1ccc(CO)cc1 please
-0.295

Do the same for O=C1O[C@@H](c2ccccc2)[C@@H](c2ccccc2)N2[C@@H](c3ccccc3OCCO)[C@]3(C(=O)Nc4ccccc43)[C@@H](C(=O)Nc3nc4ccccc4s3)[C@H]12 please
0.148
